tgt: Retinoic acid receptor beta (Homo sapiens)
Sequence (P10826 whole entry): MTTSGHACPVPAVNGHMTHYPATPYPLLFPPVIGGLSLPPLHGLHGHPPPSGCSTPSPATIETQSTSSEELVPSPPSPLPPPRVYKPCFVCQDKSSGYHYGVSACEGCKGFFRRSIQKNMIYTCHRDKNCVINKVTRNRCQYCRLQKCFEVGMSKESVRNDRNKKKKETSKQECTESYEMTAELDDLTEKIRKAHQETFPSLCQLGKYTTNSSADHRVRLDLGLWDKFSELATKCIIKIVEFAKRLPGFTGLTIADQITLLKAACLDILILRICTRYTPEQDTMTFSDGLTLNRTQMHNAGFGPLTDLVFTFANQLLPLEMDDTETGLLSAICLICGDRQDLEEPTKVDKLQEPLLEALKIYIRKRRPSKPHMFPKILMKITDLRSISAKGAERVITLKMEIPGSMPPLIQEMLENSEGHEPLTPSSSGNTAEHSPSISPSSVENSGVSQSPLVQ
experiment_description: Antagonistic activity towards retinoic acid receptor-beta
Format: functional
pKi: −log10 of the molar value.
measure_name: pKi

>>> print(df.to_string())
                              record_smiles  experimental_result
0  CN1c2cc3c(cc2N=C(c2ccc(C(=O)O)cc2)c2ccccc21)C(C)(C)CCC3(C)C                 6.66
1  CN1c2cc3c(cc2N=C(c2ccc(C(=O)O)cc2)c2ccc4ccccc4c21)C(C)(C)CCC3(C)C                 6.30

---

Below, each of the molecules is paired with its reported pKi value.
tgt: Retinoic acid receptor alpha (Homo sapiens, UniProt P10276)
Sequence (P10276 whole entry): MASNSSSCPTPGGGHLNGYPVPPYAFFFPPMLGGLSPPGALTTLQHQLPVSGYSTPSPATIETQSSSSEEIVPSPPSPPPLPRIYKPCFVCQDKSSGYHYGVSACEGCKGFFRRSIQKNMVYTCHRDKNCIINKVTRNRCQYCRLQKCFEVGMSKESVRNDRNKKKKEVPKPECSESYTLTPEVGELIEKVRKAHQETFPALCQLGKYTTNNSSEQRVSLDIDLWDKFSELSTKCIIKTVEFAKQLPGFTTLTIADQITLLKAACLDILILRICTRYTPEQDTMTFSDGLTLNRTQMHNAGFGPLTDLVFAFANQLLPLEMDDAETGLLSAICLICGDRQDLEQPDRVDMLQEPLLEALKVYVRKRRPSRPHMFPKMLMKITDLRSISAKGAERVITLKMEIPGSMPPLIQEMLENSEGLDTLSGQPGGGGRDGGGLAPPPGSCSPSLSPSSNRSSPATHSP
experiment_description: Synergistic activity towards retinoic acid receptor-alpha
pKi: −log10 of the molar value.
measure_name: pKi

>>> print(df.to_string())
                                   molecule  measure_name  experimental_result
0  CC1(C)CCC(C)(C)c2cc3c(cc21)Oc1ccccc1N=C3c1ccc(C(=O)O)cc1           pKi                 6.01
1  CC1(C)CCC(C)(C)c2cc3c(cc21)Sc1ccccc1N=C3c1ccc(C(=O)O)cc1           pKi                 6.05
2  CC1(C)CCC(C)(C)c2cc3c(cc21)Cc1ccccc1N=C3c1ccc(C(=O)O)cc1           pKi                 5.80
3  CC1c2ccccc2N=C(c2ccc(C(=O)O)cc2)c2cc3c(cc21)C(C)(C)CCC3(C)C (centres undefined)           pKi                 5.70
